Values from patent US6780872B2

Tested on: guinea-pig urinary bladder (GPB) cells
experiment: Membrane hyperpolarization (MHP) assay, DiBAC(4)3 dye, FLIPR
Format: cell-based
measurement.parameters: Cavia porcellus; membrane hyperpolarization in GPB cells; concentration eliciting 50% of the maximal response of the test sample
recorded.endpoint: EC50 (µM)

A = Cn1[nH]c(=O)c2c1NC1=C(C(=O)OCC1)C2c1ccc(F)c(Br)c1 (stereo not shown) [Example 31]
B = Cn1[nH]c(=O)c2c1NC1=C(C(=O)C(C)(C)CC1)C2c1ccc(F)c(Br)c1 (stereo not shown) [Example 22]
C = O=C1CCC2=C1C(c1ccc(F)c(Br)c1)c1c([nH][nH]c1=O)N2 (stereo not shown) [Example 2]
D = Cn1[nH]c(=O)c2c1NC1=C(C(=O)C(C)(C)CC1)C2c1ccc(Cl)c(Cl)c1 (stereo not shown) [Example 24]
Sort (4 molecules) by EC50: min first. Answer format: the labels, ordered as requested.
D, B, A, C
(D: 0.18 µM, B: 0.33 µM, A: 0.76 µM, C: 2.77 µM)
